Task for the reader: assign each of the following molecules its reported Ki.
target: Neuronal acetylcholine receptor; alpha4/beta2 (Rattus norvegicus, UniProt P09483+P12390); test: Binding affinity for rat brain Nicotinic acetylcholine receptor alpha4-beta2 using [3H]S-(-)-nicotine
Sequence (P09483 whole entry): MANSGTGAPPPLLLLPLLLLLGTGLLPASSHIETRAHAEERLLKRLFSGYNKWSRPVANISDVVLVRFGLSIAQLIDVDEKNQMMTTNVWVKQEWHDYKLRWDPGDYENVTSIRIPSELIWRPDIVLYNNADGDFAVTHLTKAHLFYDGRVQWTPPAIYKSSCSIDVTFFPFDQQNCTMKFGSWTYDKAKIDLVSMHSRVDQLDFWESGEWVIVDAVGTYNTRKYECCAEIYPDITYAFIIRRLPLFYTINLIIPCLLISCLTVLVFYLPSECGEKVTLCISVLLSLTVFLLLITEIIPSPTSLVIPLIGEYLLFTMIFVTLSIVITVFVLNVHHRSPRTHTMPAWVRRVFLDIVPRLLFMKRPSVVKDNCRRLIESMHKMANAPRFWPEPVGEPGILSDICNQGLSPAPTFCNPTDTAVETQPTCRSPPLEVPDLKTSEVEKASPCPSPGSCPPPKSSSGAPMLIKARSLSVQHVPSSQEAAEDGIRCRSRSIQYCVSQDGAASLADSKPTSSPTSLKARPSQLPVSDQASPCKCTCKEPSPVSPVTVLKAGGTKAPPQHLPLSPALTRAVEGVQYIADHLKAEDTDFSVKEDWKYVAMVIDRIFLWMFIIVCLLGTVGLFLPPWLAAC
Sequence (P12390 whole entry): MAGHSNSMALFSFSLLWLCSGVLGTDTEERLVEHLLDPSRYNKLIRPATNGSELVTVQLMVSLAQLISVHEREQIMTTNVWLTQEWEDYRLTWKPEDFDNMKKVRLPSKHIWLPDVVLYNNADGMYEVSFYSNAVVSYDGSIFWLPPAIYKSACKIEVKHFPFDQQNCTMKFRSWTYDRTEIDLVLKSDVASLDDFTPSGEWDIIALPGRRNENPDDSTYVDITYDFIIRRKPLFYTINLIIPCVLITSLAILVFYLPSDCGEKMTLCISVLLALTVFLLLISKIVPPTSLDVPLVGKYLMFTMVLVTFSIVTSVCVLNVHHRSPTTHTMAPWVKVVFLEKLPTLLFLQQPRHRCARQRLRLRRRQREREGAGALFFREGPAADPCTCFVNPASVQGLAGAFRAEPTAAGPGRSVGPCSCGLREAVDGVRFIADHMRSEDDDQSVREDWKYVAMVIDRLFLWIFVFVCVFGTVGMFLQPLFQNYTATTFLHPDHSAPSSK

[[record]]
item_smiles = "CCN(C)CCc1cncc(OC)c1"
test_target = "Neuronal acetylcholine receptor; alpha4/beta2 (Rattus norvegicus, UniProt P09483+P12390)"
reported = "19 nM"

[[record]]
item_smiles = "CCN(C)CCc1cnccc1N"
test_target = "Neuronal acetylcholine receptor; alpha4/beta2 (Rattus norvegicus, UniProt P09483+P12390)"
reported = "> 10000 nM"

[[record]]
item_smiles = "CCN(C)CCc1cncc(C)c1"
test_target = "Neuronal acetylcholine receptor; alpha4/beta2 (Rattus norvegicus, UniProt P09483+P12390)"
reported = "370 nM"

[[record]]
item_smiles = "CCN(C)CCc1ccc(Br)nc1"
test_target = "Neuronal acetylcholine receptor; alpha4/beta2 (Rattus norvegicus, UniProt P09483+P12390)"
reported = "83 nM"

[[record]]
item_smiles = "CCN(C)CCc1ccc(CCc2ccc(Cl)cc2)nc1"
test_target = "Neuronal acetylcholine receptor; alpha4/beta2 (Rattus norvegicus, UniProt P09483+P12390)"
reported = "> 10000 nM"

[[record]]
item_smiles = "CCN(C)CCc1ccc(CCc2ccc(OC)cc2)nc1"
test_target = "Neuronal acetylcholine receptor; alpha4/beta2 (Rattus norvegicus, UniProt P09483+P12390)"
reported = "> 10000 nM"

[[record]]
item_smiles = "CCN(C)CCc1cnccc1OC"
test_target = "Neuronal acetylcholine receptor; alpha4/beta2 (Rattus norvegicus, UniProt P09483+P12390)"
reported = "1840 nM"

[[record]]
item_smiles = "CCN(C)CCc1ccc(C)nc1"
test_target = "Neuronal acetylcholine receptor; alpha4/beta2 (Rattus norvegicus, UniProt P09483+P12390)"
reported = "240 nM"


Answer for every listed entry: what is its Ki? The entries follow.
1. CCN(C)CCc1ccc(Cl)nc1
2. CCN(C)CCc1cncc(Cl)c1
3. CCN(C)CCc1cncc(Br)c1

Given back:
1: 70 nM; 2: 310 nM; 3: 360 nM
